pIC50: −log10 of the molar value.
Header: pIC50 / Focal adhesion kinase 1 (Homo sapiens, UniProt Q05397) / multiple publications

Guide cases for pIC50, answers given:
compound: CC(C)NC(=O)[C@H]1CC[C@@H](n2/c(=N/C(=O)c3ccc(F)cc3)[nH]c3ccc(CN4CCC(C(C)(C)O)CC4)cc32)CC1
pIC50: 7.00 to 9.00
//
compound: CC(C)NS(=O)(=O)c1ccccc1Nc1nc(Nc2ccc(C(C)O)cc2)nc2c1CCN2 (stereo not shown)
pIC50: > 7.70

q: API: value(readout= pIC50, system= Focal adhesion kinase 1 (Homo sapiens, UniProt Q05397), query= CC(C)NS(=O)(=O)c1ccccc1Nc1nc(Nc2cccc(NS(C)(=O)=O)c2)nc2c1CCN2 )
a: > 7.70

q: Look up pIC50 with Focal adhesion kinase 1 (Homo sapiens, UniProt Q05397) for this compound: C[C@@H]1COCCN1C(=O)c1cccc(Nc2ncc(C(F)(F)F)c(NCc3cccnc3N(C)S(C)(=O)=O)n2)c1
a: 8.56
